system: Human immunodeficiency virus; test: Inhibitory concentration against protease inhibitor-resistant mutant Human immuno deficiency virus (EP13) was determined in an MT-4 cell line; details: Human immunodeficiency virus 1, MT4
Quantity kind: IC50 (nM)
Your answer is read as nM, so omit the unit and give the number.

Use these answered entries as a reference point.
Compound: CC(C)CN(C[C@@H](O)[C@H](Cc1ccc(OCCCNC(=O)N(C)C)cc1)NC(=O)O[C@H]1CO[C@H]2OCC[C@H]21)S(=O)(=O)c1ccc2c(c1)OCO2
IC50 (nM): 11
--
Compound: COC(=O)NCCOc1ccc(C[C@H](NC(=O)O[C@H]2CO[C@H]3OCC[C@H]32)[C@H](O)CN(CC(C)C)S(=O)(=O)c2ccc3c(c2)OCO3)cc1
IC50 (nM): 2.9
--
Compound: CC(C)CN(C[C@@H](O)[C@H](Cc1ccc(OCCCCN)cc1)NC(=O)O[C@H]1CO[C@H]2OCC[C@H]21)S(=O)(=O)c1ccc2c(c1)OCO2
IC50 (nM): 14
--
Compound: CC(C)CN(C[C@@H](O)[C@H](Cc1ccc(OCCNC(=O)N(C)C)cc1)NC(=O)O[C@H]1CO[C@H]2OCC[C@H]21)S(=O)(=O)c1ccc2c(c1)OCO2
IC50 (nM): 9.1
--
Compound: CC(=O)NCCCCOc1ccc(C[C@H](NC(=O)O[C@H]2CO[C@H]3OCC[C@H]32)[C@H](O)CN(CC(C)C)S(=O)(=O)c2ccc3c(c2)OCO3)cc1
IC50 (nM): 13
--
Compound: CC(=O)NCCCOc1ccc(C[C@H](NC(=O)O[C@H]2CO[C@H]3OCC[C@H]32)[C@H](O)CN(CC(C)C)S(=O)(=O)c2ccc3c(c2)OCO3)cc1
IC50 (nM): 18
--
Compound: CC(C)(C)NC(=O)[C@@H]1CN(Cc2cccnc2)CCN1C[C@@H](O)C[C@@H](Cc1ccccc1)C(=O)N[C@H]1c2ccccc2C[C@H]1O [INDINAVIR]
IC50 (nM): 330
--
Compound: COC(=O)N[C@H](C(=O)N[C@@H](Cc1ccccc1)[C@@H](O)CN(Cc1ccc(-c2ccccn2)cc1)NC(=O)[C@@H](NC(=O)OC)C(C)(C)C)C(C)(C)C [ATAZANAVIR]
IC50 (nM): 93
--
Compound: CNC(=O)NCCCOc1ccc(C[C@H](NC(=O)O[C@H]2CO[C@H]3OCC[C@H]32)[C@H](O)CN(CC(C)C)S(=O)(=O)c2ccc3c(c2)OCO3)cc1
IC50 (nM): 56
--
Compound: CC(C)CN(C[C@@H](O)[C@H](Cc1ccc(OCCN)cc1)NC(=O)O[C@H]1CO[C@H]2OCC[C@H]21)S(=O)(=O)c1ccc2c(c1)OCO2
IC50 (nM): 150

IC50 measured on "COC(=O)NCCCCOc1ccc(C[C@H](NC(=O)O[C@H]2CO[C@H]3OCC[C@H]32)[C@H](O)CN(CC(C)C)S(=O)(=O)c2ccc3c(c2)OCO3)cc1" = 2.6

IC50 measured on "CC(=O)NCCOc1ccc(C[C@H](NC(=O)O[C@H]2CO[C@H]3OCC[C@H]32)[C@H](O)CN(CC(C)C)S(=O)(=O)c2ccc3c(c2)OCO3)cc1" = 52

---

tested on: Human immunodeficiency virus; assay: Inhibitory concentration against protease inhibitor-resistant mutant Human immuno deficiency virus (EP13) was determined in an MT-4 cell line; details: Human immunodeficiency virus 1, MT4
# IC50 binned as b0: < 20 nM; b1: ≥ 20 nM and < 100 nM; b2: ≥ 100 nM

Look over these answered cases.
Compound: Cc1cccc(C)c1OCC(=O)N[C@@H](Cc1ccccc1)[C@@H](O)C[C@H](Cc1ccccc1)NC(=O)[C@H](C(C)C)N1CCCNC1=O [LOPINAVIR]
Qualitative label: b2

Compound: COC(=O)NCCCOc1ccc(C[C@H](NC(=O)O[C@H]2CO[C@H]3OCC[C@H]32)[C@H](O)CN(CC(C)C)S(=O)(=O)c2ccc3c(c2)OCO3)cc1
Qualitative label: b0

Compound: CNC(=O)NCCCCOc1ccc(C[C@H](NC(=O)O[C@H]2CO[C@H]3OCC[C@H]32)[C@H](O)CN(CC(C)C)S(=O)(=O)c2ccc3c(c2)OCO3)cc1
Qualitative label: b1

Exercise: Bin this entry: "COC(=O)NCCCCC(C)(C)CN(C[C@@H](O)[C@H](Cc1ccccc1)NC(=O)O[C@H]1CO[C@H]2OCC[C@H]21)S(=O)(=O)c1ccc2c(c1)OCO2"
Solution: b0

Exercise: Bin this entry: CC(C)CN(C[C@@H](O)[C@H](Cc1ccccc1)NC(=O)O[C@H]1CCOC1)S(=O)(=O)c1ccc(N)cc1 [AMPRENAVIR]
Solution: b2

Exercise: Bin this entry: "CC(C)CN(C[C@@H](O)[C@H](Cc1ccc(OCCCN)cc1)NC(=O)O[C@H]1CO[C@H]2OCC[C@H]21)S(=O)(=O)c1ccc2c(c1)OCO2"
Solution: b1

Exercise: Bin this entry: "CC(C)CN(C[C@@H](O)[C@H](Cc1ccc(OCCCCNS(C)(=O)=O)cc1)NC(=O)O[C@H]1CO[C@H]2OCC[C@H]21)S(=O)(=O)c1ccc2c(c1)OCO2"
Solution: b0

Exercise: Bin this entry: Cc1c(O)cccc1C(=O)N[C@@H](CSc1ccccc1)[C@H](O)CN1C[C@H]2CCCC[C@H]2C[C@H]1C(=O)NC(C)(C)C [NELFINAVIR]
Solution: b2

Exercise: Bin this entry: "CC(C)CN(C[C@@H](O)[C@H](Cc1ccc(OCCNS(C)(=O)=O)cc1)NC(=O)O[C@H]1CO[C@H]2OCC[C@H]21)S(=O)(=O)c1ccc2c(c1)OCO2"
Solution: b0

Exercise: Bin this entry: "CC(C)CN(C[C@@H](O)[C@H](Cc1ccc(OCCCCNC(=O)N(C)C)cc1)NC(=O)O[C@H]1CO[C@H]2OCC[C@H]21)S(=O)(=O)c1ccc2c(c1)OCO2"
Solution: b1

Exercise: Bin this entry: "CNC(=O)NCCOc1ccc(C[C@H](NC(=O)O[C@H]2CO[C@H]3OCC[C@H]32)[C@H](O)CN(CC(C)C)S(=O)(=O)c2ccc3c(c2)OCO3)cc1"
Solution: b2
